# protocol.details: Binding affinity to (alpha1)2beta1gammadelta nAChR in Torpedo californica electroplax by radioligand displacement assay
# Design: species or system Tetronarce californica
measurement.name: pKi
Worth noting: pKi values are minus log10 of concentrations stated in mol/L.

For the compound shown here, O=c1cccc2n1C[C@@H]1CNC[C@H]2C1 , give the reported pKi. 5.89

###

// reported Ki per item
# target.desc: Neuronal acetylcholine receptor; alpha4/beta2 (Rattus norvegicus, UniProt P09483+P12390)
# Sequence (P09483 whole entry): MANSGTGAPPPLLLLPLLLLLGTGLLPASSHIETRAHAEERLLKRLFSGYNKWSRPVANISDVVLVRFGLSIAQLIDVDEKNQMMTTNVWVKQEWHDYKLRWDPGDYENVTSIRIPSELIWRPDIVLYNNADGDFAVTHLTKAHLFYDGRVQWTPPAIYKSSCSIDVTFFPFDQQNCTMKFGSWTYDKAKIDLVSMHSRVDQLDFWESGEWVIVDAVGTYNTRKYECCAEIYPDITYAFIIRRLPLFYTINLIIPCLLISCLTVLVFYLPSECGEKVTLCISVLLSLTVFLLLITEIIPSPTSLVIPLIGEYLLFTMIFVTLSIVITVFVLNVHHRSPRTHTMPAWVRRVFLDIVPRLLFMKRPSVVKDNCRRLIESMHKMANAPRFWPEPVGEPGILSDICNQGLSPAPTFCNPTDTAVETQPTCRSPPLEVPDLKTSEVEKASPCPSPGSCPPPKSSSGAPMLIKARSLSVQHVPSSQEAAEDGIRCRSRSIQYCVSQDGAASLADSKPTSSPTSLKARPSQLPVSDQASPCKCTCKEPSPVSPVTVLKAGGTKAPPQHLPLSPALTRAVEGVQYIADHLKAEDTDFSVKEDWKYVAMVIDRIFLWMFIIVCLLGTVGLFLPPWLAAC
# Sequence (P12390 whole entry): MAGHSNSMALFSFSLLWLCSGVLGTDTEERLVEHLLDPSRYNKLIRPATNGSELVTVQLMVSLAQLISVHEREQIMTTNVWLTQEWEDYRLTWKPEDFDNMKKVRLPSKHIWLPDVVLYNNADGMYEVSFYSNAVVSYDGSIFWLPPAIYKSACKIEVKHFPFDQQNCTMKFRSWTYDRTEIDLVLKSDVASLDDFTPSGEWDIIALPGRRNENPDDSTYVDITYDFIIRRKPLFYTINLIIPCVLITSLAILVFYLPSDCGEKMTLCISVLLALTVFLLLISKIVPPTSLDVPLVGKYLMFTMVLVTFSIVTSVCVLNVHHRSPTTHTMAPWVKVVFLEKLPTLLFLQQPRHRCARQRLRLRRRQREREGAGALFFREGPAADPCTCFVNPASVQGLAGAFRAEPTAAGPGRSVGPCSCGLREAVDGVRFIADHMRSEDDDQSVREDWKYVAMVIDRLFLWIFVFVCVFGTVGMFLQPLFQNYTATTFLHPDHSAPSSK
# protocol.details: Displacement of [3H]epibatidine from alpha4beta2 nAChR in Sprague-Dawley rat forebrain P2 fraction after 90 mins by liquid scintillation counting analysis
Lab book: enter the figure in nM, no units written.

Some solved entries appear below for comparison.
| smiles.repr | units.of.measure | Ki |
| --- | --- | --- |
| Cc1ccc(C(=O)N2C[C@@H]3CNC[C@@H](C3)C2)cc1 | nM | 221 |
| O=C(c1cccs1)N1C[C@@H]2CNC[C@@H](C2)C1 | nM | 17.6 |
| O=C(c1ccc(-c2ccccc2)cc1)N1C[C@@H]2CNC[C@@H](C2)C1 | nM | 39.9 |
| O=C(c1ccccc1)N1C[C@@H]2CNC[C@@H](C2)C1 | nM | 454 |

What is its Ki for Neuronal acetylcholine receptor; alpha4/beta2 (Rattus norvegicus, UniProt P09483+P12390)? Entry: O=C(c1ccco1)N1C[C@@H]2CNC[C@@H](C2)C1 21.4

###

// reported pKi per item
# protocol.details: Displacement of [3H]epibatidine from alpha3beta4 nAChR in calf adrenal membranes fraction after 90 mins by liquid scintillation counting analysis
# Type: cell membranes, Bos taurus
pKi: −log10 of the molar value.

Some solved entries appear below for comparison.
| smiles.repr | pKi |
| --- | --- |
| O=C(c1cccc(F)c1)N1C[C@@H]2CNC[C@@H](C2)C1 | < 5.30 |
| O=C(c1cccs1)N1C[C@@H]2CNC[C@@H](C2)C1 | < 5.00 |
| O=C(c1ccc(Br)cc1)N1C[C@@H]2CNC[C@@H](C2)C1 | < 5.00 |
| O=C(c1ccccc1[N+](=O)[O-])N1C[C@@H]2CNC[C@@H](C2)C1 | < 5.00 |

For the compound shown here, O=C(c1ccc(-c2ccccc2)cc1)N1C[C@@H]2CNC[C@@H](C2)C1 , give the reported pKi. 5.96

###

# target.desc: Neuronal acetylcholine receptor; alpha4/beta2 (Rattus norvegicus, UniProt P09483+P12390)
# protocol.details: Displacement of [3H]nicotine from alpha4beta2 nAChR in Sprague-Dawley rat brain membrane fraction after 2 to 3 hrs by liquid scintillation counting analysis
# Type: cell membranes
API: label(entry) gives True if the entry's Ki is strictly smaller than 0.02 µM; on equality or larger values it gives False.

Known results for compounds:
| smiles.repr | class.assignment |
| --- | --- |
| CCCC(=O)N1C[C@@H]2CNC[C@@H](C2)C1 | True |
| CCC(=O)N1C[C@@H]2CNC[C@@H](C2)C1 | True |
| O=C(C1CCCC1)N1C[C@@H]2CNC[C@@H](C2)C1 | False |
| O=C(c1ccco1)N1C[C@@H]2CNC[C@@H](C2)C1 | False |

Could you please tell me whether Ki recorded for CC(=O)N1C[C@@H]2CNC[C@@H](C2)C1 is less than 0.02 µM? True

Now give it for CC(C)C(=O)N1C[C@@H]2CNC[C@@H](C2)C1 too. False
